Reference source: PubChem BioAssay (NCI)

TGI reference
System: NCI-H522 lung
EXPERIMENT: NCI tumour cell line growth inhibition, 48 h
Numbers only here, please. The scale is µM.

CCOC(=O)C(SCCO)C(C(=O)OCC)n1cnc2c(N)ncnc21 (stereo not given) | 19.1
CC1(C)CN=C(c2ccc3c(c2)Cc2cc(C4=NCC(C)(C)N4)ccc2-3)N1 | 83.6
Cc1oc2c(c1C)S(=O)(=O)C(C#N)C(c1ccccc1)N2 (stereo not given) | 40.2
CCN(CC)CCC(=O)NC1c2ccc(Cl)cc2Oc2c(C)cccc21 (stereo not given) | 31.6

We now examine a further compound.
Query: Provide measured TGI value, entry: Cc1cc(I)cc(CN(C)CCCN2CCSCC2)c1O
Result: 55.9
